- ASSAYED TARGET: FLT3 (Homo sapiens, UniProt P36888)
- Sequence (P36888 whole entry): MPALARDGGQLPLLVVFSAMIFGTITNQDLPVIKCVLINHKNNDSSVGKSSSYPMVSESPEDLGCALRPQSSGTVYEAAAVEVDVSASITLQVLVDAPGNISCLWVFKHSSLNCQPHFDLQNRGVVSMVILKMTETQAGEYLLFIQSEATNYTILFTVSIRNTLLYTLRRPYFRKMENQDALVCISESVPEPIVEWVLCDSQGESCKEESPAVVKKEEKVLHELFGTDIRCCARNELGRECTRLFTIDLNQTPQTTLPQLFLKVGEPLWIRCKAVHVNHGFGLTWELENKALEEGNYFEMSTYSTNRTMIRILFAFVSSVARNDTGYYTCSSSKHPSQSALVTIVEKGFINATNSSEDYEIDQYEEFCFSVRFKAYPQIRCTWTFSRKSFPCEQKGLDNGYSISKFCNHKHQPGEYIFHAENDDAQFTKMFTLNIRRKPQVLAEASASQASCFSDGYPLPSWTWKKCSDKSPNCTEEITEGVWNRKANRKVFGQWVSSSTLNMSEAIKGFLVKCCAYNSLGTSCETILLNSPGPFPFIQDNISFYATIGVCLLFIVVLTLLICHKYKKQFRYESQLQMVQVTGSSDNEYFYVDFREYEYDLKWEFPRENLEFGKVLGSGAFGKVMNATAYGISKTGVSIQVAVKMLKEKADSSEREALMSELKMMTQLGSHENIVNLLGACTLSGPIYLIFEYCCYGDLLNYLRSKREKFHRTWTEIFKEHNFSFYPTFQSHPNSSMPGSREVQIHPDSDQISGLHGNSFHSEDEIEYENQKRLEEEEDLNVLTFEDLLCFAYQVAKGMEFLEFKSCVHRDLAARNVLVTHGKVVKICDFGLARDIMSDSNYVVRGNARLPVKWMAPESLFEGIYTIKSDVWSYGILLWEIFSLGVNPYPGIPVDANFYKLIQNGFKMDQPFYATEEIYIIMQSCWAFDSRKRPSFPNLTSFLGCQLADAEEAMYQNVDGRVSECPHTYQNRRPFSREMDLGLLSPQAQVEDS
- EXPERIMENTAL DETAILS: Inhibition of recombinant human N-terminal GST-tagged FLT3 (564 to end residues) expressed in Sf21 insect cells at 100 nM using poly (Glu, Tyr)4:1 as substrate measured after 1 hr by ELISA relative to control
- CONDITION DETAILS: probe poly (Glu, Tyr)4:1
MEASUREMENT NAME: inhibition at 1 h, 0.1 µM (%)

• Cc1ccc(C(=O)Nc2ccc(Cl)cc2)cc1C#Cc1cc(-c2cnn(C)c2)cnc1N = 0

* * *

- ASSAYED TARGET: Macrophage colony-stimulating factor 1 receptor (Homo sapiens)
- Sequence (P07333 whole entry): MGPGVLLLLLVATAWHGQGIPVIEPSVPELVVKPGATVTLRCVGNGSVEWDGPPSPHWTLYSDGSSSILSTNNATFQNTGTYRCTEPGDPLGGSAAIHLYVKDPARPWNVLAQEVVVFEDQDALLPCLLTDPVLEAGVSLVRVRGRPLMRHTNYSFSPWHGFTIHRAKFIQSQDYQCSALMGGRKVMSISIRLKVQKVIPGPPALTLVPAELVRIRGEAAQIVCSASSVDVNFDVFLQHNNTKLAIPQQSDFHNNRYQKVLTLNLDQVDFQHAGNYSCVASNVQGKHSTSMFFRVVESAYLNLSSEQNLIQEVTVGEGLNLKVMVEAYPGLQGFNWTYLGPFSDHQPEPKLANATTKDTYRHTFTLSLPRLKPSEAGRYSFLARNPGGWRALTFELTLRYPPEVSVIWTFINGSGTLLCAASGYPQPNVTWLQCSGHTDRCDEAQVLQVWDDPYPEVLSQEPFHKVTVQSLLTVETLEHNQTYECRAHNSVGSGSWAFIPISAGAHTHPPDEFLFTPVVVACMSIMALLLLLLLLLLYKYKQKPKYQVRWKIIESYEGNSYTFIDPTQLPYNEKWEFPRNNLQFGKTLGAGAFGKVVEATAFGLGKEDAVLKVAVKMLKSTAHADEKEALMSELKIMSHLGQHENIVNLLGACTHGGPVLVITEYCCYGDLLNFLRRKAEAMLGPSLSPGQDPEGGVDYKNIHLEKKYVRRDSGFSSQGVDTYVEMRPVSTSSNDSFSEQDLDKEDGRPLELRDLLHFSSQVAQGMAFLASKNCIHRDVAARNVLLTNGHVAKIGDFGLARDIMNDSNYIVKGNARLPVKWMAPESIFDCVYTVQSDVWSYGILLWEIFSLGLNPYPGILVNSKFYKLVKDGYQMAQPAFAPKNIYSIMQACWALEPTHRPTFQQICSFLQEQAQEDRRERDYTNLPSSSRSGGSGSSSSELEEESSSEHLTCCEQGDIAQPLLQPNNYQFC
- EXPERIMENTAL DETAILS: Inhibition of recombinant CSF1R (unknown origin) using poly (Glu, Tyr)4:1 as substrate measured after 1 hr by ELISA
MEASUREMENT NAME: IC50 (nM)

• Cc1ccc(C(=O)Nc2ccc(Cl)cc2Cl)cc1C#Cc1cc(-c2cnn(C)c2)cnc1N = 5.9
• Cc1ccc(C(=O)Nc2ccc(Cl)c(Cl)c2)cc1C#Cc1cc(-c2cnn(C)c2)cnc1N = 10.8
• Cc1ccc(NC(=O)c2ccc(Cl)cc2)cc1C#Cc1cc(-c2cnn(C)c2)cnc1N = 7.2
• CNC(=O)c1cnc(N)c(C#Cc2cc(C(=O)Nc3cc(OC)cc(OC)c3)ccc2C)c1 = 8.1
